Consider the following compounds and their measured growth readings.
- Tested on: SK-MEL-28 melanoma
- Experimental Details: NCI-60 one-dose screen, 48 h (100 = growth as untreated, 0 = no growth, -100 = all killed)
- Run Conditions: 10 µM unless noted
This is part of a sample that, as a whole, favours compounds with a hit. Of some 83,000 tested, about 20% had one in any assay. Active and inactive are the calls of the source. How the source made its calls: active means growth percent below 10; inactive means the rest.

Qu. Identify growth associated with the compound `Nc1c(C(=O)Nc2ccncc2)sc2nc3c(cc12)CCCCC3`
Ans. 82.5% (inactive)

====

- Tested on: K-562 leukemia
- Experimental Details: NCI-60 one-dose screen, 48 h
- Run Conditions: 10 µM unless noted
This is part of a sample that, as a whole, favours compounds with a hit. Of some 83,000 tested, about 20% had one in any assay. Active and inactive are the calls of the source. The calls were made as follows: active = growth percent below 10; inactive = the rest.
The reply should be one of these categories: active, inactive

Please review the following examples before continuing.
Compound	Answer Label
S=c1ssnc1-c1cccs1	inactive
O=C(Cn1cc(CN2C(=O)c3ccccc3S2(=O)=O)nn1)Nc1cccc(Cl)c1	inactive
COc1cc(/C=C2\CN(S(=O)(=O)c3ccc(C)cc3)C/C(=C\c3cc(CN4CCCCC4)c(O)c(OC)c3)C2=O)cc(CN2CCCCC2)c1O	active

Qu. Fill in: this test's call for `O=C1/C(=C/c2ccccc2)CN(C(=O)c2cccnc2)C/C1=C\c1ccccc1` is ___
Ans. active

Qu. Fill in: this test's call for `CCN(CC)CCNC(=O)c1ccc(-c2nc3ccc4[nH]ncc4c3c3c2CCCC3)cc1` is ___
Ans. inactive

Qu. Fill in: this test's call for `CN(C)c1ccc(/C=C/C(=O)c2ccccc2)cc1` is ___
Ans. inactive

Qu. Fill in: this test's call for `O=C1NC(=C(Cl)Cl)/C(=N/S(=O)(=O)NCCc2c[nH]c3ccccc23)N1` is ___
Ans. inactive

Qu. Fill in: this test's call for `Fc1ccc2c(c1)c(-c1nc(-c3c[nH]c4ncccc34)cs1)cn2CCCN1CCOCC1` is ___
Ans. active

Qu. Fill in: this test's call for CCN(CC)CCCC(C)Nc1ccc2cc(OC)ccc2n1 (stereo not given) is ___
Ans. inactive

Qu. Fill in: this test's call for `Cc1ccc2[nH]c(-c3ccc(S(C)(=O)=O)cc3)c(/C=N/N=C(N)N)c2c1` is ___
Ans. inactive

====

- Test system: A549/ATCC NSCLC
- Experimental Details: NCI-60 one-dose screen, 48 h
- Run Conditions: 10 µM unless noted
The panel holds about 83,000 compounds, 20% with a hit somewhere; the sample as a whole holds those more often. Active and inactive are the calls of the source. Rule for the calls: active = growth percent below 10; inactive = the rest.
The reply should be one of these categories: active, inactive

Compound	Target System	Answer Label
Nc1ncnc2c1c(-c1ccc(Oc3ccccc3)cc1)nn2CC1SSCC1O (centres undefined)	A549/ATCC NSCLC	inactive
CC(C(=O)O)n1c(O)c(C=Nc2cccnc2)sc1=S (centres undefined)	A549/ATCC NSCLC	inactive

Qu. Fill in: this test's call for `COc1ccc2cc(Cn3cc[n+](Cc4ccc5ccccc5c4)c3)ccc2c1` is ___
Ans. inactive

Qu. Fill in: this test's call for `O=C(CSc1nnc2sc(Nc3cccc(Cl)c3)nn12)c1ccc(F)cc1` is ___
Ans. inactive

Qu. Fill in: this test's call for `C=C(c1ccc(C(=O)O)cn1)c1cc2c(cc1C)C(C)(C)CCC2(C)C` is ___
Ans. inactive

Qu. Fill in: this test's call for `C[C@@H]1CC[C@@]2(OC1)O[C@H]1C[C@H]3[C@@H]4CC=C5C[C@@H](O[C@@H]6O[C@H](CO)[C@@H](O[C@@H]7O[C@@H](CO)[C@H](O)[C@H]7O)[C@H](O)[C@H]6O[C@@H]6O[C@@H](C)[C@H](O)[C@@H](O)[C@H]6O)CC[C@]5(C)[C@H]4CC[C@]3(C)[C@H]1[C@@H]2C` is ___
Ans. active

Qu. Fill in: this test's call for `C#CCOc1ccc2ncnc(Nc3cccc(NC(=O)CCl)c3)c2c1` is ___
Ans. inactive

Qu. Fill in: this test's call for `CCOc1ccc(NC(=O)c2cc(OC)c(OC)c(OC)c2)cc1` is ___
Ans. inactive
